assay: Selectivity index, ratio of CC50 for human Huh-7 cells to IC50 for Zika virus H/PF/2013 infected in pre-seeded Huh-7 cells assessed as inhibition of viral replication incubated for 72 hrs by immunodetection based direct yield reduction assay; format: toxicity, cell-based; settings: read-out: Selectivity Index
Answer each item with its documented selectivity ratio at 72 h.
Answers are plain numbers.

// below: answered compounds
compound_string=CC(C)OC(=O)[C@H](C)N[P@](=O)(OC[C@H]1O[C@@H](n2ccc(=O)[nH]c2=O)[C@](C)(F)[C@@H]1O)Oc1ccccc1 metric_name="selectivity ratio at 72 h" number=74
compound_string=NC(=O)c1ncn([C@@H]2O[C@H](CO)[C@@H](O)[C@H]2O)n1 metric_name="selectivity ratio at 72 h" number=53

Next item in the queue.
Form field selectivity ratio at 72 h, entry FC(F)(F)c1cccc(Nc2nc(NCCOc3ccccc3)nc3[nH]cnc23)c1 : 250

----------
system: Influenza A virus; assay: Antiviral activity against Influenza A Puerto Rico/8/34/H1N1 infected in human A549 cells assessed as inhibition of viral replication after 24 hrs by hemagglutination assay; type: functional, organism-based; conditions: A/Puerto Rico/8/1934(H1N1), A549, 24 h
Metric Name: pIC50
Numbers only, as −log10 of the molar value.

// below: answered compounds
compound_string=FC(F)(F)c1cccc(Nc2nc(NCCOc3ccccc3)nc3[nH]cnc23)c1 number=5.00
compound_string=Fc1cccc(Nc2nc(NCCOc3ccccc3)nc3[nH]cnc23)c1 number=4.68
compound_string=Fc1cccc(NNc2nc(NCCOc3ccccc3)nc3[nH]cnc23)c1 number=4.83

Next item in the queue.
Form field pIC50, entry NC(=O)c1ncn([C@@H]2O[C@H](CO)[C@@H](O)[C@H]2O)n1 : 4.43

----------
Answer each item with its documented pIC50.
tested on: Zika virus; assay: Antiviral activity against Zika virus H/PF/2013 infected in pre-seeded Huh-7 cells assessed as inhibition of viral replication incubated for 72 hrs by immunodetection based direct yield reduction assay; type: functional, organism-based; conditions: H/PF/2013, Huh-7, 72 h
Numbers only, as −log10 of the molar value.

// below: answered compounds
compound="NC(=O)c1ncn([C@@H]2O[C@H](CO)[C@@H](O)[C@H]2O)n1 [RIBAVIRIN]" metric_name=pIC50 number=5.42
compound="CC(C)OC(=O)[C@H](C)N[P@](=O)(OC[C@H]1O[C@@H](n2ccc(=O)[nH]c2=O)[C@](C)(F)[C@@H]1O)Oc1ccccc1 [SOFOSBUVIR]" metric_name=pIC50 number=5.57

Next item in the queue.
Form field pIC50, entry FC(F)(F)c1cccc(Nc2nc(NCCOc3ccccc3)nc3[nH]cnc23)c1 : 6.10

----------
Answer each item with its documented activity at 10 min, 5 µM.
target: PIK3CA (Phosphatidylinositol 4,5-bisphosphate 3-kinase catalytic subunit alpha isoform) (Homo sapiens); experiment: Inhibition of human full length PIK3CA assessed as residual activity at 5 uM using PI:PS (1:3) as a substrate incubated for 10 mins by scintillation counting analysis relative to control; conditions: full length PIK3CA enzyme, probe PI:PS (1:3), read-out: Activity
Sequence (P42336 whole entry, canonical isoform): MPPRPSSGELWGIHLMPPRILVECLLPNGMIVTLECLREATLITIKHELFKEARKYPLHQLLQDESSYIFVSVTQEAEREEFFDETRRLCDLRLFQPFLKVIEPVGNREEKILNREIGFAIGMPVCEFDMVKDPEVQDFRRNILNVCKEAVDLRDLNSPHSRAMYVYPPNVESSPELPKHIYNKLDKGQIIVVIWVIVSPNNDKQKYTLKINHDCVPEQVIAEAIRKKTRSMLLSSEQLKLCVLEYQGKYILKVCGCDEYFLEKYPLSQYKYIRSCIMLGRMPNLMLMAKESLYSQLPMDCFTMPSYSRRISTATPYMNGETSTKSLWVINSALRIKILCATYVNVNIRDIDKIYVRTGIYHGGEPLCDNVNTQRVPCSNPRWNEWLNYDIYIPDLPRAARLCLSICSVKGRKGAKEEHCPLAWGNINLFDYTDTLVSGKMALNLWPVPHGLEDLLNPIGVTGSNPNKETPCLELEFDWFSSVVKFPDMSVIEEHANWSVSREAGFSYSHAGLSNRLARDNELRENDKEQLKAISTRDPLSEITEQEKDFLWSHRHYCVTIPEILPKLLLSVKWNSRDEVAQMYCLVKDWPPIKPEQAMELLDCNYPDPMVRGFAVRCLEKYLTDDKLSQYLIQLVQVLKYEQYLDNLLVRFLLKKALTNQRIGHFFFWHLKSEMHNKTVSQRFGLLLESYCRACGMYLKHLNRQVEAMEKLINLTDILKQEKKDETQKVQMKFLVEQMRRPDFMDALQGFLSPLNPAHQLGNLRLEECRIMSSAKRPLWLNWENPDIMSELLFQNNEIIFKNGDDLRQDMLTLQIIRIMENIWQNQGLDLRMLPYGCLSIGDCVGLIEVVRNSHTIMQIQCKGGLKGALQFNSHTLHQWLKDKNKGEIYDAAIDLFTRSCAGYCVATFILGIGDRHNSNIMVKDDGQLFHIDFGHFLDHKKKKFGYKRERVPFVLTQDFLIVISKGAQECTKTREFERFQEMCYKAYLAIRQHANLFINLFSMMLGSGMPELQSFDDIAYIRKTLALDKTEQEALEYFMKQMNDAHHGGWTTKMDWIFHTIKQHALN
One number for each entry, in %.

// below: answered compounds
compound_string=Fc1cccc(NNc2nc(NCCOc3ccccc3)nc3[nH]cnc23)c1 unit_tag=% number=77
compound_string=Fc1cccc(/N=N/c2nc(NCCOc3ccccc3)nc3[nH]cnc23)c1 unit_tag=% number=78
compound_string=Fc1cccc(Nc2nc(NCCOc3ccccc3)nc3[nH]cnc23)c1 unit_tag=% number=69

Next item in the queue.
Form field activity at 10 min, 5 µM, entry FC(F)(F)c1cccc(Nc2nc(NCCOc3ccccc3)nc3[nH]cnc23)c1 : 66
